The origin of these recorded values is PubChem BioAssay (NCI).

Listed molecules paired with reported growth
Test system: NCI-H23 lung
Assay: NCI-60 one-dose screen, 48 h (100 = growth as untreated, 0 = no growth, -100 = all killed)
Details: 10 µM unless noted
Procedure: Growth inhibition of the NCI-H23 human Non-Small Cell Lung tumor cell line is measured as a screen for anti-cancer activity. Cells are grown in 96 well plates and exposed to the test compound for 48 hours. Compounds are tested at a single concentration, which is 10^-5 M for most compounds. The reported endpoint is percent growth (GI% or GIPRCNT), where numbers from 0 - 100% represent growth inhibition, and numbers from -100% - 0 represent cell death. […]
The panel holds about 83,000 compounds, 20% with a hit somewhere; the sample as a whole holds those more often. The source made the active and inactive calls. How the source made its calls: active means growth percent below 10; inactive means the rest.

Consider the reported growth for these molecules:
molecule	tested_on	measured_value
CC(O)CN(CC(C)O)c1ccc2c(c1)Cc1cc([N+](=O)[O-])ccc1-2 (stereo not drawn)	NCI-H23 lung	93.5% (inactive)
CCCCCC(=O)Oc1ccc(/C(=C(\C)c2ccc(OC)cc2)c2ccc(OCCN3CCCCC3)cc2)cc1	NCI-H23 lung	67.1% (inactive)

State its growth: Cn1ncc2c(=O)nc3c(-c4ccccc4)n[nH]n3c21
101% (inactive)

State its growth: O=C(O)c1ccc(N=CC(=O)c2ccc(-c3ccccc3)cc2)cc1
93.6% (inactive)

State its growth: COc1cc(/C=C/c2cc(/C=C/c3ccc(O)c(OC)c3)n(-c3c(Cl)cccc3Cl)c(=O)n2)ccc1O
29% (inactive)

State its growth: C=C1C(=O)O[C@H]2[C@H]1CC/C(COC(=O)NCCc1ccc(OC)c(OC)c1)=C\CC[C@@]1(C)O[C@@H]21
59.2% (inactive)

State its growth: CCCc1cc(=O)n2c(C(=O)Nc3cccc(C(=O)OCC)c3)c(C(=O)Nc3ccc(F)cc3)sc2n1
79.8% [30 µM] (inactive)

----------
Test system: SF-295 CNS
Assay: NCI-60 one-dose screen, 48 h (100 = growth as untreated, 0 = no growth, -100 = all killed)
Conditions: 10 µM unless noted
Procedure: Cells are grown in 96 well plates and exposed to the test compound for 48 hours. Compounds are tested at a single concentration, which is 10^-5 M for most compounds. The reported endpoint is percent growth (GI% or GIPRCNT), where numbers from 0 - 100% represent growth inhibition, and numbers from -100% - 0 represent cell death. For example, a value of 40 represents 60% growth inhibition. A value of 0 means no net growth occurred over the course of the experiment. […]
Compounds without any hit were thinned out: in the full panel of roughly 83,000, 20% have a hit. Activity calls are given as the source filed them. The calls were made as follows: active = growth percent below 10; inactive = the rest.
Listed compounds paired with reported growth

Consider the reported growth for these compounds:
compound	tested_on	measured_value
Cn1ccnc1C(=O)/C=C/c1ccc(CC(=O)Nc2ccccc2)cc1	SF-295 CNS	26.2% (inactive)
C#CCOc1ccc2ncnc(NCc3cccc(NC(=O)CCl)c3)c2c1	SF-295 CNS	93.9% [8.25 µM] (inactive)

State its growth: CSc1ccc(SC2c3ccc(C)cc3Oc3nc(N)c(C#N)c(N)c32)cc1 (configuration not stated)
15.3% (inactive)

State its growth: CCOC(=O)C(C)(C#N)C1C=CCCC1 (configuration not stated)
84.3% (inactive)

State its growth: CCCc1cc(=O)n2c(C(=O)Nc3cccc(C(=O)OCC)c3)c(C(=O)Nc3ccc(F)cc3)sc2n1
44.5% [30 µM] (inactive)

State its growth: COc1cccc(-c2nc3sccn3c2-c2ccnc(NCCNS(=O)(=O)c3ccccc3)c2)c1
10.8% (inactive)

State its growth: CCOC(=O)n1cc(-c2nonc2-c2cn(C)c3ncccc23)c2cc(F)ccc21
76% (inactive)

----------
Tested on: K-562 leukemia
Test: NCI-60 one-dose screen, 48 h (100 = growth as untreated, 0 = no growth, -100 = all killed)
Conditions: 10 µM unless noted
The panel holds about 83,000 compounds, 20% with a hit somewhere; the sample as a whole holds those more often. Activity calls are given as the source filed them. Rule for the calls: active = growth percent below 10; inactive = the rest.
Listed molecules paired with reported growth

Consider the reported growth for these molecules:
molecule	measured_value
O=C1/C(=C/c2ccc(Cl)cc2)SC(=S)N1CCc1ccc(O)cc1	96.9% (inactive)
C#CC(F)(F)[C@]1(O)CC[C@H]2[C@@H]3CCC4=CC(=O)CCC4=C3[C@@H](c3ccc(C4CC4)cc3)C[C@@]21C	14.3% (inactive)
COc1ccc(CCNc2nc3c(c(=O)n(Cc4ccc(Br)cc4)c(=O)n3C)n2C)cc1OC	69.8% (inactive)
COc1nc2c(c(=O)n1C)CN(Cc1ccccc1)C=N2	93.2% (inactive)
Cc1ccc2c(C(C[N+](=O)[O-])c3ccccc3)c(-c3ccccc3)[nH]c2c1 (stereo unspecified)	10.9% [9.5 µM] (inactive)

State its growth: Cc1ccc(-c2onc3c(=O)[nH]nc(-c4ccccc4)c23)cc1
14.7% (inactive)

----------
Listed compounds paired with reported growth
Test system: IGROV1 ovarian
Assay: NCI-60 one-dose screen, 48 h (100 = growth as untreated, 0 = no growth, -100 = all killed)
Conditions: 10 µM unless noted
Compounds without any hit were thinned out: in the full panel of roughly 83,000, 20% have a hit.
Numeric only. Scale: %

Consider the reported growth for these compounds:
compound	units_symbol	measured_value
CSc1nc(Nc2cccc(NC(=O)CCl)c2)c(C#N)c(-c2cccc([N+](=O)[O-])c2)n1	%	0.383
CC1C(/C=N/Nc2ccccc2)C(C#N)(C#N)C1(C#N)C#N (centres undefined)	%	56.3
Cc1[nH]c(-c2ccc3cc[nH]c3c2)c2c1C(=O)CCCC2	%	36.9

State its growth: CSc1nc(NCCN2CCOCC2)c(C#N)c(-c2cccc([N+](=O)[O-])c2)n1
94.9

----------
Listed compounds paired with reported growth
System: SK-OV-3 ovarian
Assay: NCI-60 one-dose screen, 48 h (100 = growth as untreated, 0 = no growth, -100 = all killed)
Details: 10 µM unless noted
Compounds without any hit were thinned out: in the full panel of roughly 83,000, 20% have a hit.
Numeric only. Scale: %

Print SK-OV-3 ovarian growth for Cc1cc(N2CCN(c3ccnc4cc(Cl)ccc34)CC2)nc(NC2CCCCC2)n1 .
56.3

----------
Tested on: SK-MEL-2 melanoma
Assay: NCI-60 one-dose screen, 48 h
Conditions: 10 µM unless noted
Description: Growth inhibition of the SK-MEL-2 human tumor cell line is measured as a screen for anti-cancer activity. Cells are grown in 96 well plates and exposed to the test compound for 48 hours. Compounds are tested at a single concentration, which is 10^-5 M for most compounds. The reported endpoint is percent growth (GI% or GIPRCNT), where numbers from 0 - 100% represent growth inhibition, and numbers from -100% - 0 represent cell death. For example, a value of 40 represents 60% growth inhibition. […]
The panel holds about 83,000 compounds, 20% with a hit somewhere; the sample as a whole holds those more often. The source made the active and inactive calls. The calls were made as follows: active = growth percent below 10; inactive = the rest.
Give one outcome, nothing more. List: active, inactive

Some solved cases for reference:
compound	group
O=C1c2cc3c(cc2-c2c1c1ccc(F)cc1c(=O)n2CCCNCCO)OCO3	active
COCCNc1ccc2c3c(cccc13)C(=O)N(CCN(C)C)C2=O	active
Cn1cc(-c2nonc2-c2c[nH]c3ccc(F)cc23)c2cccnc21	inactive
CCOc1ccc(-n2nc(C(=O)Nc3cc(OC)c(OC)c(OC)c3)nc2-c2cc(OC)c(OC)c(OC)c2)cc1	inactive
NC(N)=N/N=C(/c1ccccc1)c1ccc(F)cc1	active
NC(=NCCCOc1ccc(Cl)cc1)Nc1ccc(Cl)cc1	inactive
O=C1C=C(O)C(=O)C(CC2=C(O)C(=O)C=C(O)C2=O)=C1O	inactive
Fc1ccc2[nH]cc(SSc3c[nH]c4ccc(F)cc34)c2c1	inactive

Look up the recorded call for COc1ccc(S(=O)(=O)N2CCN(C)CC2)cc1NC(=O)c1[nH]c(C)c2c1CCCCC2=O in this test.
inactive

Look up the recorded call for O=C(CN1C(=O)/C(=C/c2ccc(Cl)cc2)SC1=S)NCCCN1CCOCC1 in this test.
inactive

Look up the recorded call for COc1cccc(-c2nc3sccn3c2-c2ccnc(NCCCNS(=O)(=O)c3cccc(F)c3)c2)c1 in this test.
active

----------
Tested on: EKVX NSCLC
Assay: NCI-60 one-dose screen, 48 h (100 = growth as untreated, 0 = no growth, -100 = all killed)
Conditions: 10 µM unless noted
Compounds without any hit were thinned out: in the full panel of roughly 83,000, 20% have a hit.
observation_type: growth (%)
Numeric only. Scale: %

Consider the reported growth for these compounds:
compound	tested_on	units_symbol	growth
CSc1ccc(-c2n[nH]nc2-c2cc3ccccc3s2)cc1	EKVX NSCLC	%	73.2
CCCOc1cc2ccccc2cc1C(=O)Nc1nc(NC)c2c(ccc3nccc32)[nH]1	EKVX NSCLC	%	-78.4
CN1CCN(Cc2ccc(NC(=O)c3cncc(C#Cc4cncn5ccnc45)c3)cc2C(F)(F)F)CC1	EKVX NSCLC	%	86.6
CC(=O)c1cc2c(N)c(C(=O)Nc3cccc4ccccc34)sc2nc1C	EKVX NSCLC	%	46.4
Cc1ccc2c(C(C[N+](=O)[O-])c3ccco3)c(-c3ccccc3)[nH]c2c1 (stereo not given)	EKVX NSCLC	%	39.8

State its growth: CCCOc1cc2ccccc2cc1C(=O)Nc1nc(N)c2c(ccc3nccc32)[nH]1
-73.7

State its growth: Cc1cc(N2CCOCC2)nc(NCc2cc(Nc3ccnc4cc(Cl)ccc34)ccc2F)n1
9.33

State its growth: Cc1ccc(OC(=O)c2ccc(Cl)cc2)cc1
99.1

State its growth: N#CCCN=Nc1c(O)[nH]c2ccc([N+](=O)[O-])cc12
91.3

State its growth: COC(=O)[C@@H]1CCCN1C(=O)[C@@H]1CCCN1C(=O)[C@H](Cc1ccccc1)NC(=S)Nc1cc(C(F)(F)F)cc(C(F)(F)F)c1
75.7

State its growth: Cc1cc2c3ccccc3ccc2[n+]2ccccc12
14.5

State its growth: c1csc(C2=NN3C(C2)c2ccccc2OC3c2ccncc2)c1 (stereo not given)
78.2

State its growth: CSc1nc(Nc2cccc(NC(=O)CCl)c2)c(C#N)c(-c2cccc([N+](=O)[O-])c2)n1
74.1

State its growth: CN(C)C(=S)N=Nc1c(O)[nH]c2ccccc12
14.8

State its growth: COc1ccc(-n2nc(C)c3c(Nc4ccc(NC(=O)Nc5ccc(Cl)c(C(F)(F)F)c5)cc4)ncnc32)cc1
6.63

State its growth: O=c1nc2oc3ccc4ccccc4c3cc-2s1
46.1

State its growth: CN1CCN(CCCOc2cccc3nc(Nc4ccc(Cl)c(F)c4)ccc23)CC1
61.7

State its growth: COc1ccc(-c2nc3ccc(-c4nc5ccc(N6CCN(C)CC6)cc5[nH]4)cc3[nH]2)cc1OC
85.4

State its growth: COc1cc(C)c(C2C(C#N)=C(N)Oc3n[nH]c(-c4cccs4)c32)cc1C(C)C (stereo not given)
97

State its growth: O=[N+]([O-])c1ccccc1/C=N\NC(=S)N/N=C/c1ccccc1[N+](=O)[O-]
70.5

State its growth: Cc1ccc(/C=C2\SC(=S)N(CC(=O)NCCCN3CCOCC3)C2=O)cc1
93.7

State its growth: COc1ccc(/C=C/c2nc(-c3n[nH]c(=O)n3-c3ccccc3)c3ccccc3n2)cc1
94.6

State its growth: CCCOc1ccc2nc(NC(=O)OC)[nH]c2c1
57.1

State its growth: COc1ccc(CN2c3ccccc3Oc3ccccc32)cc1O
35

State its growth: O=C(O)c1ccc(NC(=O)c2ccc(-c3cccc([N+](=O)[O-])c3)o2)cc1
93.6

State its growth: NC(=NCCCOc1ccc(Cl)cc1)Nc1ccc(C(F)(F)F)cc1
50.5

State its growth: COc1ccc2nc(NC(=O)CSc3nnc4n3S(=O)(=O)c3ccccc3N4c3ccccc3)sc2c1
94.4
